assay: Cytotoxicity MTT assay, 24 h, PAR cells; assay type: cell-based; conditions: mouse, parental (PAR) L5178 mouse T-cell lymphoma cells, read-out: Cytotoxic effect IC50
VALUE_KIND: IC50 at 24 h (µM)

STRUCTURE	READOUT_VALUE
Cl.NC1=N/C(=C\c2ccc3c(c2)Cc2ccccc2-3)C(=O)N1CCCN1CCOCC1	16
Cl.NC1=N/C(=C\c2ccc(Oc3ccccc3)cc2)C(=O)N1CCCN1CCOCC1	21.5
Cl.O=C1N=C(N2CCN(CCN3CCOCC3)CC2)N/C1=C\c1ccc(-c2ccccc2)cc1	12.8
Cl.NC1=N/C(=C\c2ccc(-c3ccccc3)cc2)C(=O)N1CCCN1CCOCC1	17.5

====

molecular target: ABCB1 efflux pump (Homo sapiens, UniProt P08183); experiment: Rhodamine 123 accumulation assay (flow cytometry); conditions: concentration 20 µM; FAR of compound related to FAR of VER tested at 20 µM
Sequence (P08183 whole entry): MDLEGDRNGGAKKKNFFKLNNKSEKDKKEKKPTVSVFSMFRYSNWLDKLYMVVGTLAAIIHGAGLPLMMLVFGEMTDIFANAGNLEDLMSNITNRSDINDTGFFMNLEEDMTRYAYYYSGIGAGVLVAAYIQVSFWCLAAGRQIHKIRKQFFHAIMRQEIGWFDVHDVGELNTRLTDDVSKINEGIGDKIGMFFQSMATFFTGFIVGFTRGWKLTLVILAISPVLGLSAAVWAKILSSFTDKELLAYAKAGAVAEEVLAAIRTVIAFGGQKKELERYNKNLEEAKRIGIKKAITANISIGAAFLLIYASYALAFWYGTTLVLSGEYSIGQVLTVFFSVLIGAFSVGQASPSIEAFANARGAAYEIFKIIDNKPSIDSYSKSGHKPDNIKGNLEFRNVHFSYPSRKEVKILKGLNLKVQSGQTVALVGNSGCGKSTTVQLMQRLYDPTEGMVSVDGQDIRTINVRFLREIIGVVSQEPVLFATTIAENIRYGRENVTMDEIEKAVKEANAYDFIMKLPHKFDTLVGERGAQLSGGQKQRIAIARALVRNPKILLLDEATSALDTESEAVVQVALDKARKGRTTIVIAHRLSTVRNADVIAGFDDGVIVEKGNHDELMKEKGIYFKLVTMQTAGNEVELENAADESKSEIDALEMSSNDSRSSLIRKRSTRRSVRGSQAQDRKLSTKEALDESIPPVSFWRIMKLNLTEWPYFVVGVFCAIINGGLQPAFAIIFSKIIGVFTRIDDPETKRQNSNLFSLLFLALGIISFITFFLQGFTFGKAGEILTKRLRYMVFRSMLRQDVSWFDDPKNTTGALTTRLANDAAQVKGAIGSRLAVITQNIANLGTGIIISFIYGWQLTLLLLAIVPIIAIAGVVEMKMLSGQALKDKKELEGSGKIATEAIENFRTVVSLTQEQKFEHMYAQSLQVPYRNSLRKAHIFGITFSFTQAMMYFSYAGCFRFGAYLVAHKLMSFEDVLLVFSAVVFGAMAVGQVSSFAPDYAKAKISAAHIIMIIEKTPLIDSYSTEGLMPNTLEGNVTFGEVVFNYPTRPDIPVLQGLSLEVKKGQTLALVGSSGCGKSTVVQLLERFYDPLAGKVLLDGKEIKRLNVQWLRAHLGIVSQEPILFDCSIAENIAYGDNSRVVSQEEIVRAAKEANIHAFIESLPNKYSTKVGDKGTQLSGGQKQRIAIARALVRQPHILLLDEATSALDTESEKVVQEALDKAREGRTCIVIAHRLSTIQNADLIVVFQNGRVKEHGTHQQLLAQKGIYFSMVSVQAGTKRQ
VALUE_KIND: FAR Quotient (%)

STRUCTURE	READOUT_VALUE
Cl.NC1=N/C(=C\c2ccc3c(c2)Cc2ccccc2-3)C(=O)N1CCCN1CCOCC1	138.37%
Cl.O=C1N=C(N2CCC(N3CCOCC3)CC2)N/C1=C\c1ccc(Oc2ccccc2)cc1	146.22%
NC1=N/C(=C\c2cccc(Oc3ccccc3)c2)C(=O)N1CCCN1CCOCC1	18.55%
NC1=N/C(=C\c2c3ccccc3cc3ccccc23)C(=O)N1CCCN1CCOCC1	10.08%
Cl.O=C1N=C(N2CCC(N3CCOCC3)CC2)N/C1=C\c1ccc2c(c1)Cc1ccccc1-2	46.23%
Cl.NC1=N/C(=C\c2ccc(-c3ccccc3)cc2)C(=O)N1CCCN1CCOCC1	16.98%
Cl.NC1=N/C(=C\c2ccc(Oc3ccccc3)cc2)C(=O)N1CCCN1CCOCC1	14.37%
Cl.O=C1N=C(N2CCC(N3CCOCC3)CC2)N/C1=C\c1ccc(-c2ccccc2)cc1	15.04%

====

Catalogue of compounds with associated IC50 at 24 h
assay: Cytotoxicity MTT assay, 24 h, MDR cells; type: cell-based; settings: mouse; MDR cells, 24 h, MTT; read-out: Cytotoxic effect IC50

COMPOUND	UNIT_OF_MEASURE	RESULT_QUALIFIER	IC50 at 24 h
Cl.O=C1NC(N2CCOCC2)=N/C1=C\c1ccc(-c2ccccc2)cc1 [Compound 7]	µM	=	54.2
Cl.O=C1N=C(N2CCC(N3CCOCC3)CC2)N/C1=C\c1ccc2c(c1)Cc1ccccc1-2 [Compound 12]	µM	=	30.8
NC1=N/C(=C\c2c3ccccc3cc3ccccc23)C(=O)N1CCCN1CCOCC1 [Compound 19]	µM	>	100
COc1cccc2c1C(=O)c1c(O)c3c(c(O)c1C2=O)C[C@@](O)(C(=O)CO)C[C@@H]3O[C@H]1C[C@H](N)[C@H](O)[C@H](C)O1 [DOX, doxorubicin, reference compound]	µM	=	2.14
Cl.O=C1N=C(N2CCC(N3CCOCC3)CC2)N/C1=C\c1cccc(Oc2ccccc2)c1 [Compound 10]	µM	=	63.8
Cl.NC1=N/C(=C\c2ccc(-c3ccccc3)cc2)C(=O)N1CCCN1CCOCC1 [Compound 15]	µM	=	20.8
Cl.NC1=N/C(=C\c2cc3ccccc3c3ccccc23)C(=O)N1CCCN1CCOCC1 [Compound 20]	µM	=	24.9
